Target: T1, human B7-H4 on the cell surface (human, UniProt Q7Z7D3 25-282)
T1 construct: full-length human B7-H4 on transfected HEK293T cells or endogenous on SK-BR-3 cells; also called SK-BR-3 (endogenous human B7-H4)
T1 sequence: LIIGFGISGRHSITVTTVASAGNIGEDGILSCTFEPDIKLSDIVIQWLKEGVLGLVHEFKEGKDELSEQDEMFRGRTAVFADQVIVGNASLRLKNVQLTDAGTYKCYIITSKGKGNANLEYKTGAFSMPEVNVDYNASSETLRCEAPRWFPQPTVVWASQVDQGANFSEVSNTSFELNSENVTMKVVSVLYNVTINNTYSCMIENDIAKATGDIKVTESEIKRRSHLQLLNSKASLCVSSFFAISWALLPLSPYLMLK
Assay: flow cytometry, SK-BR-3 cells
Please respond with reported EC50 for every item in the list.
Numbers only, in nM.

Recorded results for 4 binders are shown here.
Task: Please give the measured EC50 for this binder: B7-H4 antibody 20501 (antibody, human IgG1, kappa, V domains shown, human IgG1/kappa) VH: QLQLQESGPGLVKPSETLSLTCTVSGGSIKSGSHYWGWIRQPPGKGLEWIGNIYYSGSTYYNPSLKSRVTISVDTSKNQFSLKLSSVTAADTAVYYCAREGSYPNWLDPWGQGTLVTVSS VL: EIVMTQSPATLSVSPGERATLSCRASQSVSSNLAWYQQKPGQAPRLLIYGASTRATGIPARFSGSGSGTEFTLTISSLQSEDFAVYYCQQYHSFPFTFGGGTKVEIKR
Output: 1.9

Task: Quick check: EC50 of B7-H4 antibody 20500 (antibody, human IgG1, kappa, V domains shown, human IgG1/kappa) VH: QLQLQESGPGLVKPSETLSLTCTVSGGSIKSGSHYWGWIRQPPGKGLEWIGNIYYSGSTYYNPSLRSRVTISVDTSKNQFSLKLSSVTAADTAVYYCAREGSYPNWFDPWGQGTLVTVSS VL: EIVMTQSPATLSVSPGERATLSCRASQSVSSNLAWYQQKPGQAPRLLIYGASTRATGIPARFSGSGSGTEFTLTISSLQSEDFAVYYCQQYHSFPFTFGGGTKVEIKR ?
Output: 1.54

Task: What value of measured EC50 is listed for B7-H4 antibody 15495 (antibody, human IgG1, kappa, V domains shown, human IgG1/kappa) VH: QVQLVQSGAEVKKPGSSVKVSCKASGGTFSSYAISWVRQAPGQGLEWMGGIIPIFGTASYAQKFQGRVTITADESTSTAYMELSSLRSEDTAVYYCARQQYDGRRYFGLWGRGTLVTVSS VL: EIVMTQSPATLSVSPGERATLSCRASQSVSSNLAWYQQKPGQAPRLLIYSASTRATGIPARFSGSGSGTEFTLTISSLQSEDFAVYYCQQVNVWPPTFGGGTKVEIKR ?
Output: 61.2

Task: For the binder B7-H4 antibody 20502.1 (antibody, human IgG1, kappa, V domains shown, human IgG1/kappa) VH: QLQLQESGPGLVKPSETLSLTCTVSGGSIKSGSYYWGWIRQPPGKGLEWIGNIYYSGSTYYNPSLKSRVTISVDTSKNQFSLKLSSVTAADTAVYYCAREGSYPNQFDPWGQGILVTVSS VL: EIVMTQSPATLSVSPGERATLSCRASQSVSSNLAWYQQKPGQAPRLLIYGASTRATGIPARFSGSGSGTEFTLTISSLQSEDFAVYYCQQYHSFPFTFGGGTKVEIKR , what EC50 is on record?
Output: 2.5

# next binder below
Task: EC50 lookup needed for B7-H4 antibody 20496 (antibody, human IgG1, kappa, V domains shown, human IgG1/kappa) VH: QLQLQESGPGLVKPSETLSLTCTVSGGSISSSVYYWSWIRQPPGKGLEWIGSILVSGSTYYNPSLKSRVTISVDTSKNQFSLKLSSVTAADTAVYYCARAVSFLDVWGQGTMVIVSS VL: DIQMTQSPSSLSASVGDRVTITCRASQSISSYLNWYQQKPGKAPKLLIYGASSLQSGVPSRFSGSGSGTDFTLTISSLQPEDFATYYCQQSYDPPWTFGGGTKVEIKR , thanks.
Output: 7.6
